systemName: T1, human CD8A-Fc (in house) (human, UniProt P01732 22-182, limits assumed)
T1 construct: captured by goat anti-human Fc on the ProteOn chip; also called hCD8A-Fc; recombinant human CD8 alpha; not shown: linker/tag and Fc of human IgG1
T1 sequence (P01732 22-182 limits assumed): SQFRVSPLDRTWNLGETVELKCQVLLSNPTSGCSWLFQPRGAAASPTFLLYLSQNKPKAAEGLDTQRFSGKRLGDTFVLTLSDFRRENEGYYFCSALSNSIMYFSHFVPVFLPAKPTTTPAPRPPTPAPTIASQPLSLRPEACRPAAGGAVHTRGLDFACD
assayNotes: SPR (ProteOn), captured hCD8A-Fc
Listing of entries alongside the reported koff.
Just the number in s⁻¹, nothing appended.

Solved entries:
P283ER9P1365_F4 (designed binder, FN3 domain) LPAPKNLVVSRVTEDSARLSWTAPDAAFDSFYIPYRESEFRGEAIALPVPGSERSYDLTGLKPGTKYSVIIIGVKGGEFSQPLGAIFTT: 0.000216
P283HR7P1368_H1 (designed binder, FN3 domain) LPAPKNLVVSRVTEDSARLSWTAPDAAFDSFGIAYIETARWGEAISLTVPGSERSYDLTGLKPGTEYNVVIIGVKGGTPSHPLGAPFTT: 0.000552
P283FR9P1366_H6 (designed binder, FN3 domain) LPAPKNLVVSRVTEDSARLSWTAPDAAFDSFDIAYPEWPVTGEAIVLTVPGSERSYDLTGLKPGTEYWVIIFGVKGGERSWPLSAIFTT: 0.000205

Challenge: Which koff value belongs to P283FR9P1366_A9 (designed binder, FN3 domain) LPAPKNLVVSRVTEDSARLSWTAPDAAFDSFNIAYGEYPGPGEAIVLTVPGSERSYDLTGLKPGTEYWVPIWGVKGGELSEPLSAIFTT ?
Response given: 0.00394

Challenge: Any idea what koff was measured for P283FR9P1366_F8 (designed binder, FN3 domain) LPAPKNLVVSRVTEDSARLSWTAPDAAFDSFAIAYPEIAKWGEAIVLTVPGSERSYDLTGLKPGTEYFVIIYGVKGGVHSFPLSAIFTT ?
Response given: 0.00403
